ASSAY_SUMMARY: in vivo
ASSAY_CONDITIONS: rat, brain and plasma, ip

{"MOLECULE": "O=C(NN1CCCCC1)c1ccc2c(c1)N=C(C1CCCCC1)c1ccccc1S2", "Kp": 4}

###

Species: Mus musculus
ASSAY_SUMMARY: animal or person
ASSAY_CONDITIONS: NSA, ip, read-out: INH
Some compounds, each annotated with its measured inhibition in vivo at 3 mg/kg.

{"COMPOUND": "CC(C)CNC(=O)c1ccc2c(c1)N=C(c1ccc(Cl)s1)c1ccccc1S2", "inhibition in vivo at 3 mg/kg / %": 73}
{"COMPOUND": "CCCCNC(=O)c1ccc2c(c1)N=C(c1ccc(Cl)c(Cl)c1)c1ccccc1S2", "inhibition in vivo at 3 mg/kg / %": 58}
{"COMPOUND": "CN/C(=N\\S(=O)(=O)c1ccc(Cl)cc1)N1C[C@H](c2ccccc2)C(c2ccc(Cl)cc2)=N1 (racemic)", "inhibition in vivo at 3 mg/kg / %": 82}
{"COMPOUND": "CCCCNC(=O)c1ccc2c(c1)N=C(c1ccc(Cl)cc1)c1ccccc1S2", "inhibition in vivo at 3 mg/kg / %": 82}
{"COMPOUND": "CCCCNC(=O)c1ccc2c(c1)N=C(c1ccc(F)c(Cl)c1)c1ccccc1S2", "inhibition in vivo at 3 mg/kg / %": 94}

###

ASSAY_SUMMARY: in vitro
ASSAY_CONDITIONS: human, microsomes
We begin with a simple list: items and their reported microsomal CLint.
READOUT_LABEL: microsomal CLint (µL/min/mg)

{"COMPOUND": "CCCCNC(=O)c1ccc2c(c1)N=C(c1ccc(Cl)cc1)c1ccccc1S2", "READOUT_LABEL": "microsomal CLint", "UNIT_INFO": "µL/min/mg", "VALUE": 24}
{"COMPOUND": "Cc1c(C(=O)NN2CCCCC2)nn(-c2ccc(Cl)cc2Cl)c1-c1ccc(Cl)cc1 [RIMONABANT]", "READOUT_LABEL": "microsomal CLint", "UNIT_INFO": "µL/min/mg", "VALUE": 41}
{"COMPOUND": "O=C(NCc1cccc(Cl)c1)c1ccc2c(c1)N=C(N1CCC(F)(F)CC1)c1ccccc1S2", "READOUT_LABEL": "microsomal CLint", "UNIT_INFO": "µL/min/mg", "VALUE": 40}
{"COMPOUND": "O=C(NN1CCCCC1)c1ccc2c(c1)N=C(C1CCCCC1)c1ccccc1S2", "READOUT_LABEL": "microsomal CLint", "UNIT_INFO": "µL/min/mg", "VALUE": 84}
{"COMPOUND": "CCCC1=Nc2cc(C(=O)NC3CCN(C(=O)OCC)CC3)ccc2Sc2ccccc21", "READOUT_LABEL": "microsomal CLint", "UNIT_INFO": "µL/min/mg", "VALUE": 279}
{"COMPOUND": "O=C(NCc1cccc(Cl)c1)c1ccc2c(c1)N=C(N1CCCCC1)c1ccccc1S2", "READOUT_LABEL": "microsomal CLint", "UNIT_INFO": "µL/min/mg", "VALUE": 265}
{"COMPOUND": "CCCCNC(=O)c1ccc2c(c1)N=C(c1ccc(F)c(Cl)c1)c1ccccc1S2", "READOUT_LABEL": "microsomal CLint", "UNIT_INFO": "µL/min/mg", "VALUE": 16}

###

ASSAY_SUMMARY: in vivo
ASSAY_CONDITIONS: rat

{"MOLECULE": "O=C(NN1CCCCC1)c1ccc2c(c1)N=C(C1CCCCC1)c1ccccc1S2", "Tmax / h": 0.5}
{"MOLECULE": "CCCCNC(=O)c1ccc2c(c1)N=C(c1ccc(Cl)cc1)c1ccccc1S2", "Tmax / h": 6}

###

ASSAY_SUMMARY: in vivo
ASSAY_CONDITIONS: rat, po

{"MOLECULE": "O=C(NN1CCCCC1)c1ccc2c(c1)N=C(C1CCCCC1)c1ccccc1S2", "bioavailability, %": 13}
{"MOLECULE": "CCCCNC(=O)c1ccc2c(c1)N=C(c1ccc(Cl)cc1)c1ccccc1S2", "bioavailability, %": 25}

###

ASSAY_SUMMARY: in vitro
ASSAY_CONDITIONS: rat, microsomes
microsomal CLint vs 500 µL/min/mg: at or above is y, below is n.

{"MOLECULE": "O=C(NCc1cccc(Cl)c1)c1ccc2c(c1)N=C(N1CCC(F)(F)CC1)c1ccccc1S2", "GROUP": "n"}
{"MOLECULE": "Cc1c(C(=O)NN2CCCCC2)nn(-c2ccc(Cl)cc2Cl)c1-c1ccc(Cl)cc1", "GROUP": "n"}
{"MOLECULE": "CCCCNC(=O)c1ccc2c(c1)N=C(c1ccc(F)c(Cl)c1)c1ccccc1S2", "GROUP": "n"}
{"MOLECULE": "O=C(NCc1cccc(Cl)c1)c1ccc2c(c1)N=C(N1CCCCC1)c1ccccc1S2", "GROUP": "y"}
{"MOLECULE": "CCCC1=Nc2cc(C(=O)NC3CCN(C(=O)OCC)CC3)ccc2Sc2ccccc21", "GROUP": "y"}
{"MOLECULE": "CCCCNC(=O)c1ccc2c(c1)N=C(c1ccc(Cl)c(Cl)c1)c1ccccc1S2", "GROUP": "n"}
{"MOLECULE": "CCCCNC(=O)c1ccc2c(c1)N=C(c1ccc(Cl)cc1)c1ccccc1S2", "GROUP": "n"}
{"MOLECULE": "O=C(NN1CCCCC1)c1ccc2c(c1)N=C(C1CCCCC1)c1ccccc1S2", "GROUP": "y"}

###

ASSAY_SUMMARY: in vivo
ASSAY_CONDITIONS: rat
READOUT_LABEL: half-life (h)

{"MOLECULE": "O=C(NN1CCCCC1)c1ccc2c(c1)N=C(C1CCCCC1)c1ccccc1S2", "READOUT_LABEL": "half-life", "UNIT_INFO": "h", "VALUE": 2.1}
{"MOLECULE": "CCCCNC(=O)c1ccc2c(c1)N=C(c1ccc(Cl)cc1)c1ccccc1S2", "READOUT_LABEL": "half-life", "UNIT_INFO": "h", "VALUE": 5.8}
